Target: T1, COVID-19 nucleocapsid protein (N-protein) (severe acute respiratory syndrome …, UniProt P0DTC9 1-419)
T1 construct: also called nucleocapsid protein (N-protein) of severe acute respiratory syndrome coronavirus 2 (SARS-CoV-2)
Test: bio-layer interferometry (BLI)
ASSAY READOUT: pKd
// pKd: -log10(molar conc.)

Answered examples (6):
{"BINDER": "ACYVGYCPATDTFCA (Ci, Cii and Ciii cysteines covalently bound to TBMT scaffold) [BCY17638]", "pKd": 6.09}
{"BINDER": "ACPVRIEYPICDTSICA (Ci, Cii and Ciii cysteines covalently bound to TBMT scaffold) [BCY16582]", "pKd": 5.75}
{"BINDER": "ACTTDFCNNRYVVNQCQEQS (Ci, Cii and Ciii cysteines covalently bound to TBMT scaffold) [BCY18983]", "pKd": 5.61}
{"BINDER": "ACDDWMIGCRITYKCA (Ci, Cii and Ciii cysteines covalently bound to TATA scaffold) [BCY17642]", "pKd": 5.40}
{"BINDER": "ACPQTYCFINNRYCA (Ci, Cii and Ciii cysteines covalently bound to TBMT scaffold) [BCY16567]", "pKd": 5.99}
{"BINDER": "NQLPCLTDFCNNRYVVNRCA (Ci, Cii and Ciii cysteines covalently bound to TBMT scaffold) [BCY18992]", "pKd": 7.71}

pKd reading for ACTNLEWAYCYIHNECA (Ci, Cii and Ciii cysteines covalently bound to TATA scaffold) [BCY19571] : 6.02
